Collected self-cleavage values appear next to each entry.
B1: CPEB3 Ribozyme (parent)
chain: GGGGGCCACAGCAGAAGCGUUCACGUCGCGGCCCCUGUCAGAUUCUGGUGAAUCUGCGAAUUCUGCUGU

Variants of: B1
Assay: self-cleavage, relative activity (ratio to wild type); higher = more cleavage; co-transcriptional
The reply should be a number, written without any unit.

G41C U49C	0.871
C6G G25C	0.0497
G31C G41C	0.173

In: Return reported self-cleavage. Input variant: U20A C35A
Out: 0.115

In: Return reported self-cleavage. Input variant: C18G A42U
Out: 0.137

In: Return reported self-cleavage. Input variant: C22G A52U
Out: 0.146

In: Return reported self-cleavage. Input variant: G5A G41U
Out: 0.488

In: Return reported self-cleavage. Input variant: A15U U43A
Out: 0.479

In: Return reported self-cleavage. Input variant: C32A C66U
Out: 0.903

In: Return reported self-cleavage. Input variant: G11A C54A
Out: 0.368

In: Return reported self-cleavage. Input variant: G31U U55C
Out: 0.459
